experiment: Approximate kinetic solubility in pharmaceutical co-solvents; assay type: physicochemical; details: aqueous with cosolvent or surfactant or cyclodextrin, thermodynamic from solid; 40% HP-β-CD in aqueous solution, no-pH adjustment, 2 hrs.
Counter-ions that a name gives are not always drawn.
readout.type: solubility kinetic at 2 h (µg/mL)

- CCS(=O)(=O)N1CCN(c2ccc(Nc3ncc(C(N)=O)c(NC4CC4)n3)cc2)CC1 [Compound I HCl Form I]: 3860

====

assay: Approximate kinetic solubility in organic solvents; type: physicochemical; details: DMF, PEG300, organic solvent or mixture, kinetic from dmso stock
Structures can show the parent of a compound that is named as a salt.
readout.type: solubility kinetic

- CCS(=O)(=O)N1CCN(c2ccc(Nc3ncc(C(N)=O)c(NC4CC4)n3)cc2)CC1 [Compound I HCl Form I]: 1000 to 10000 µg/mL

====

test: Approximate kinetic solubility in pharmaceutical co-solvents; format: physicochemical; conditions: aqueous with cosolvent or surfactant or cyclodextrin, thermodynamic from solid; 30% HP-β-CD in aqueous solution, no-pH adjustment, 2 hrs.
Structures can show the parent of a compound that is named as a salt.
readout.type: solubility kinetic at 2 h (µg/mL)

- CCS(=O)(=O)N1CCN(c2ccc(Nc3ncc(C(N)=O)c(NC4CC4)n3)cc2)CC1 [Compound I HCl Form I]: 2980

====

experiment: Further solubility testing of Compound I HCl Form I in solvents; format: physicochemical; conditions: MeOH/DCM, 1:1 (v/v), organic solvent or mixture
Structures can show the parent of a compound that is named as a salt.
readout.type: solubility

- CCS(=O)(=O)N1CCN(c2ccc(Nc3ncc(C(N)=O)c(NC4CC4)n3)cc2)CC1 [Compound I HCl Form I]: 6800 to 12500 µg/mL

====

assay: Further solubility testing of Compound I HCl Form I in solvents; format: physicochemical; conditions: THF, organic solvent or mixture
Where a name gives a salt, the structure may show the parent alone.
readout.type: solubility

• CCS(=O)(=O)N1CCN(c2ccc(Nc3ncc(C(N)=O)c(NC4CC4)n3)cc2)CC1 [Compound I HCl Form I] = < 1900 µg/mL

====

test: Further solubility testing of Compound I HCl Form I in solvents; assay type: physicochemical; details: EtOH, organic solvent or mixture
Structures can show the parent of a compound that is named as a salt.
readout.type: solubility

* CCS(=O)(=O)N1CCN(c2ccc(Nc3ncc(C(N)=O)c(NC4CC4)n3)cc2)CC1 [Compound I HCl Form I] | < 2200 µg/mL

====

assay: Approximate kinetic solubility in pharmaceutical co-solvents; format: physicochemical; conditions: aqueous with cosolvent or surfactant or cyclodextrin, thermodynamic from solid; 30% HP-β-CD in aqueous solution, no-pH adjustment, 24 hrs.
Where a name gives a salt, the structure may show the parent alone.
readout.type: solubility kinetic at 24 h (µg/mL)

* CCS(=O)(=O)N1CCN(c2ccc(Nc3ncc(C(N)=O)c(NC4CC4)n3)cc2)CC1 [Compound I HCl Form I] | 2940

====

experiment: Approximate kinetic solubility in pharmaceutical co-solvents; type: physicochemical; conditions: aqueous with cosolvent or surfactant or cyclodextrin, thermodynamic from solid; 10% Poloxamer F68 in aqueous solution, no-pH adjustment, 2 hrs.
Structures can show the parent of a compound that is named as a salt.
readout.type: solubility kinetic at 2 h (µg/mL)

• CCS(=O)(=O)N1CCN(c2ccc(Nc3ncc(C(N)=O)c(NC4CC4)n3)cc2)CC1 [Compound I HCl Form I] = 260

====

test: Approximate kinetic solubility in pharmaceutical co-solvents; format: physicochemical; details: aqueous with cosolvent or surfactant or cyclodextrin, thermodynamic from solid; 5% TPGS in aqueous solution, no-pH adjustment, 24 hrs.
Structures can show the parent of a compound that is named as a salt.
readout.type: solubility kinetic at 24 h (µg/mL)

• CCS(=O)(=O)N1CCN(c2ccc(Nc3ncc(C(N)=O)c(NC4CC4)n3)cc2)CC1 [Compound I HCl Form I] = 1530

====

assay: Approximate kinetic solubility in pharmaceutical co-solvents; type: physicochemical; conditions: aqueous with cosolvent or surfactant or cyclodextrin, thermodynamic from solid; 40% HP-β-CD in aqueous solution, no-pH adjustment, 7 days
Where a name gives a salt, the structure may show the parent alone.
readout.type: solubility kinetic at 7 days (µg/mL)

* CCS(=O)(=O)N1CCN(c2ccc(Nc3ncc(C(N)=O)c(NC4CC4)n3)cc2)CC1 [Compound I HCl Form I] | 4120

====

test: Further solubility testing of Compound I HCl Form I in solvents; format: physicochemical; conditions: Acetone/H2O, 4:1 (v/v), organic solvent or mixture
Where a name gives a salt, the structure may show the parent alone.
readout.type: solubility

- CCS(=O)(=O)N1CCN(c2ccc(Nc3ncc(C(N)=O)c(NC4CC4)n3)cc2)CC1 [Compound I HCl Form I]: < 1900 µg/mL

====

test: Further solubility testing of Compound I HCl Form I in solvents; type: physicochemical; details: ACN/H2O, 4:1 (v/v), organic solvent or mixture
Where a name gives a salt, the structure may show the parent alone.
readout.type: solubility

* CCS(=O)(=O)N1CCN(c2ccc(Nc3ncc(C(N)=O)c(NC4CC4)n3)cc2)CC1 [Compound I HCl Form I] | 2900 to 3800 µg/mL

====

assay: Approximate kinetic solubility in pharmaceutical co-solvents; assay type: physicochemical; details: aqueous with cosolvent or surfactant or cyclodextrin, thermodynamic from solid; 20% HP-β-CD in aqueous solution, no-pH adjustment, 7 days
Where a name gives a salt, the structure may show the parent alone.
readout.type: solubility kinetic at 7 days (mg/mL)

- CCS(=O)(=O)N1CCN(c2ccc(Nc3ncc(C(N)=O)c(NC4CC4)n3)cc2)CC1 [Compound I HCl Form I]: 2.65

====

assay: Approximate kinetic solubility in pharmaceutical co-solvents; format: physicochemical; details: aqueous with cosolvent or surfactant or cyclodextrin, thermodynamic from solid; 3% HP-β-CD in aqueous solution, no-pH adjustment, 7 days
Structures can show the parent of a compound that is named as a salt.
readout.type: solubility kinetic at 7 days (µg/mL)

* CCS(=O)(=O)N1CCN(c2ccc(Nc3ncc(C(N)=O)c(NC4CC4)n3)cc2)CC1 [Compound I HCl Form I] | 1020

====

assay: Approximate kinetic solubility in pharmaceutical co-solvents; type: physicochemical; details: aqueous with cosolvent or surfactant or cyclodextrin, thermodynamic from solid; 3% TPGS in aqueous solution, no-pH adjustment, 24 hrs.
Counter-ions that a name gives are not always drawn.
readout.type: solubility kinetic at 24 h (µg/mL)

- CCS(=O)(=O)N1CCN(c2ccc(Nc3ncc(C(N)=O)c(NC4CC4)n3)cc2)CC1 [Compound I HCl Form I]: 640

====

experiment: Approximate kinetic solubility in pharmaceutical co-solvents; type: physicochemical; settings: aqueous with cosolvent or surfactant or cyclodextrin, thermodynamic from solid; 20% HP-β-CD in aqueous solution, no-pH adjustment, 2 hrs.
Where a name gives a salt, the structure may show the parent alone.
readout.type: solubility kinetic at 2 h (µg/mL)

- CCS(=O)(=O)N1CCN(c2ccc(Nc3ncc(C(N)=O)c(NC4CC4)n3)cc2)CC1 [Compound I HCl Form I]: 2630

====

assay: Further solubility testing of Compound I HCl Form I in solvents; type: physicochemical; settings: ACN, organic solvent or mixture
Counter-ions that a name gives are not always drawn.
readout.type: solubility

• CCS(=O)(=O)N1CCN(c2ccc(Nc3ncc(C(N)=O)c(NC4CC4)n3)cc2)CC1 [Compound I HCl Form I] = < 2200 µg/mL

====

assay: Approximate kinetic solubility in pharmaceutical co-solvents; type: physicochemical; conditions: aqueous with cosolvent or surfactant or cyclodextrin, thermodynamic from solid; 3% TPGS in aqueous solution, no-pH adjustment, 7 days
Structures can show the parent of a compound that is named as a salt.
readout.type: solubility kinetic at 7 days

• CCS(=O)(=O)N1CCN(c2ccc(Nc3ncc(C(N)=O)c(NC4CC4)n3)cc2)CC1 [Compound I HCl Form I] = 540 µg/mL

====

assay: Approximate kinetic solubility in pharmaceutical co-solvents; assay type: physicochemical; conditions: aqueous with cosolvent or surfactant or cyclodextrin, thermodynamic from solid; 50% Labrasol in aqueous solution, no-pH adjustment, 7 days
Structures can show the parent of a compound that is named as a salt.
readout.type: solubility kinetic at 7 days (µg/mL)

• CCS(=O)(=O)N1CCN(c2ccc(Nc3ncc(C(N)=O)c(NC4CC4)n3)cc2)CC1 [Compound I HCl Form I] = 2200

====

assay: Approximate kinetic solubility in pharmaceutical co-solvents; format: physicochemical; details: aqueous with cosolvent or surfactant or cyclodextrin, thermodynamic from solid; 40% Captisol in aqueous solution, no-pH adjustment, 2 hrs.
Where a name gives a salt, the structure may show the parent alone.
readout.type: solubility kinetic at 2 h (µg/mL)

- CCS(=O)(=O)N1CCN(c2ccc(Nc3ncc(C(N)=O)c(NC4CC4)n3)cc2)CC1 [Compound I HCl Form I]: 4250

====

experiment: Further solubility testing of Compound I HCl Form I in solvents; type: physicochemical; settings: DCM, organic solvent or mixture
Structures can show the parent of a compound that is named as a salt.
readout.type: solubility

• CCS(=O)(=O)N1CCN(c2ccc(Nc3ncc(C(N)=O)c(NC4CC4)n3)cc2)CC1 [Compound I HCl Form I] = < 2100 µg/mL
